Consider the following sequences and their measured folding stability dG unfold readings.
# ASSAY_NAME: folding stability dG unfold (combined trypsin and chymotrypsin); higher = more stable
Give a bare numeral; the unit kcal/mol is implied.

Would you please look over these solved cases?
SAGGSAGGSAMVTIAFPDGTVVEIPASLSEEEVEAEAERLAKERAAGVRPVDVTVESIEPPGSAGGSAGGSA [r18_213_JUSTAS]: 1.07
SAGGSAGGMVTITEVSYDPKIGKTFTLVTVKDPEGKETLVEVPLEEIEKLIEEVPEGRPVEIAPSAGGSAGG [r6_113_JUSTAS]: -0.199

Recorded folding stability dG unfold for SMYDIVITVPSPEDVKALEEAFKELGVEEIEVERLPEERYRIVIKTKGSVEEIVEAIRKIAEENGLEIEPSA [r9_1003_TrMRF] , please?
3.75

Recorded folding stability dG unfold for SAGGSAGGSAGPLKIKKLELRKLPDGFVEMTAEFEGPENYTVRLIVRKDDPNKLVLEVFPSAGGSAGGSAGG [r11_618_TrROS_Hall] , please?
2.69

Recorded folding stability dG unfold for SAGGSAGGSAGGSMLVELDENGKTLTIYDEETQELIEVEVEPAPPVEETVTEVSEEELKSAGGSAGGSAGGS [r4_56_TrROS_Hall] , please?
0.375

Recorded folding stability dG unfold for SMTIRIVDEKTKEVREIKIENLTVEKEKDGRYRMTREQVLEALKKLLPEDVKIVEVEENEDGELTIVVEPSA [r9_997_TrROS_Hall] , please?
2.77

====

Consider the following sequences and their measured folding stability dG unfold readings.
# ASSAY_NAME: folding stability dG unfold from chymotrypsin proteolysis; higher = more stable
Give a bare numeral; the unit kcal/mol is implied.

Would you please look over these solved cases?
SAGGSAGGSAMKVSTTPVTLPNGESATLETLPDGTKVLKVGDKYIVVYPSGEVKEVPLEELLSAGGSAGGSA [r18_379_JUSTAS]: 1.76
SAGGSAGGSAGGAPLVEVEEVETRRVKDPATKRWYRRTRVRVRNKETGEWYELEFVEPLSAGGSAGGSAGGS [r10_535_TrROS_Hall]: 2.6

Recorded folding stability dG unfold for SAGGSAGGSAGKIKIKNEDGSEYEVKKIEITIKNENGEKKKIKLEIELPKAKEVKIEKKKSAGGSAGGSAGG [r11_804_TrROS_Hall] , please?
0.32

Recorded folding stability dG unfold for SAGGSAGGSAMTVLVMEIKIELRVNEDGSLELRMEIEIKPVEPITLEELAEKLGLSKEELLSAGGSAGGSAG [r3_338_TrROS_Hall] , please?
2.91

Recorded folding stability dG unfold for SAGGDPGKPTSVTLTLTVPKDKKTVKLEVTFNPETGEAVITFPGSSKTVTLPFGSLPDVLDAAKKLLYSAGG [r13_439_TrMRF] , please?
2.65

Recorded folding stability dG unfold for SAGGSAGGSAGGGWAEIEIKITIFVFDPGNMTLFMVTLEPRIEVPPVKRDPDNGKWKPDSAGGSAGGSAGGS [r10_815_TrROS] , please?
3.92

Recorded folding stability dG unfold for SAGGSAGGSAGMEVIINDPEKAKNIPVNSKVKLPNGKEYKVKKVEYNPEIGYVKFIVSPESAGGSAGGSAGG [r11_316_TrMRF] , please?
-0.489

Recorded folding stability dG unfold for SAGGSAGGSGIEELKKAGFEIVRIERKEDGTLRLTVRNKETEETKTIEITLPEAEVELVEPPESAGGSAGGS [r12_166_TrROS_Hall] , please?
3.74

====

Consider the following sequences and their measured folding stability dG unfold readings.
# ASSAY_NAME: folding stability dG unfold from trypsin proteolysis; higher = more stable
Give a bare numeral; the unit kcal/mol is implied.

Would you please look over these solved cases?
SAGGSAGGEYEISIPNYELTEEKFDPNPGLLTVTYKDPEGKLVTITYKVKPDSIEKVKTETFEPSAGGSAGG [r6_719_JUSTAS]: 0.569
SGPFQFFVKIEYKGKNGKTQERELPINMPPGDFDKFIEEILDDPNLEGADDVEIDVYMAGTGRPQEIEIPSA [r9_97_TrROS]: 0.678
SAAPADNPVLVATLTVTVTRPVSFTSPDGSTGTVPETETRTLVLVADAGNDPEALERALELARRLAETVSAG [r14_830_TrMRF]: 2.73
SAGGSAGGSAGGMTLVIVVETEEQAEALAEELKKKGFEVTVERDEETNLLVVTVKVKPPPSAGGSAGGSAGG [r7_623_TrROS_Hall]: 4.04
SAGTVSSSFDPATGTLTITRTTSPDETVDLTLNVEVPETPATVAKVDSGGPVEGDEPVTITVELTDLKPSAG [r5_737_JUSTAS]: 0.222

Recorded folding stability dG unfold for SAGGSAGGSGMISKTEVERLPDGTVIERKEYPEGGLTTLKIYKVPPDGVPTLVEEKLVPEKLISAGGSAGGS [r12_695_JUSTAS] , please?
-0.612

Recorded folding stability dG unfold for SAGGSAGGSADKIPVKIKVKLKDGDKEYEVTVTVTLDVNDPNLDAFAKELASSGKIEEVEASAGGSAGGSAG [r3_30_TrMRF] , please?
0.877

Recorded folding stability dG unfold for SGYLDAPVKDIKVEKKPIPTSGKVTYTFEAETEDGKPVRVEYNPVTGKIVFGLPPGFKIKPGKPAEVVVGSA [r9_509_TrMRF] , please?
0.16

Recorded folding stability dG unfold for SAGGSAGGSAKVKAEIEYDPATGKITIKLITEDERGGKTEEAEITIPIPIPAPPAPPADVDKSAGGSAGGSA [r18_361_TrMRF] , please?
-0.0238

Recorded folding stability dG unfold for SAGGATLTLKPGDEITLTLTVTVTVTNEDGSTSTFTTTVTLTLRIEPAPPPPPVTVERDADGNLRVTLSAGG [r13_401_TrROS_Hall] , please?
2.35

Recorded folding stability dG unfold for SAGGSAGGSAGGKPKLTLTLTLKRTVKNKNGKTTEKTLTLTLTFDSKEEAENALKELGFSAGGSAGGSAGGS [r10_1062_TrROS_Hall] , please?
2.18

Recorded folding stability dG unfold for SAGGSAGGSAGGSPNWVWILITVKITFPIYKYDPDGKPLEPIEITIEFTVLIRIPPGDFSAGGSAGGSAGGS [r4_425_TrROS] , please?
3.63

Recorded folding stability dG unfold for SAGGSAGGSAKMIIRIRNKNGKIIELTLEEVAKKLGLSKEEMTAEEILKKLKENIEKVEILPSAGGSAGGSA [r18_403_TrROS_Hall] , please?
2.9

Recorded folding stability dG unfold for SAGGSAGGSSPPVVTVEKYSEEPSPGVLRAVIRHPDGKEIVVTFEDLSPEEAKARAEEVAKLGSAGGSAGGS [r20_181_JUSTAS] , please?
0.00637

Recorded folding stability dG unfold for SAGGEFLEKVIEAAIEAAKAGPDAKLELTIPVPGGPVKVTIEVGEDGKVKVTIYKGDKKILEIELPLSAGGS [r16_611_TrMRF] , please?
3.85

Recorded folding stability dG unfold for SAGGPVIEVESLEELKKALELLKEGKEVVIRVRVRRTETLPDGRKRVEEREVVYRATVEDGKLTIEPLSAGG [r13_835_TrROS_Hall] , please?
2.93

Recorded folding stability dG unfold for SAGGNWTIEVEIEENPDGPYRITIRYRAPNGEEHKVTMWFDPDNGTFPIKLPGPLPPDQIEDIEIWPSAGGS [r16_95_TrROS] , please?
3.41

Recorded folding stability dG unfold for SAGGSAGGSAGGVVKFPDDVLIERVETLPDGTVKIKVYKRIPGKGSPVEEIEFEDPGSSSAGGSAGGSAGGS [r10_934_JUSTAS] , please?
0.235

Recorded folding stability dG unfold for SAGGSAGGSAGTITTPTAEFTVTLDPNGTYTVTYQNTTTTVPVGAPFTLPGGEPLTVVPASAGGSAGGSAGG [r11_147_JUSTAS] , please?
0.0786

Recorded folding stability dG unfold for SAGGSAGGSASSSPVTVETKTLEVEFKDDEIIVKEKVTTKYPNGKTTVTVTTTTIKVDPNLDSAGGSAGGSA [r18_291_JUSTAS] , please?
1.21

Recorded folding stability dG unfold for SAGPPKTRTVMFPPEDIPKILEELKKLPPDITIHFPDPDPGNWFMIEVTDDEIKIENPGNGEERTIPISAGG [r19_154_TrROS] , please?
-0.712

Recorded folding stability dG unfold for SAGGSAGGSAGPPIMVMVHKHDKEDGKPKIDESIPIDIPPDQQDKLKEEANERGYHVHPFSAGGSAGGSAGG [r17_18_TrROS] , please?
0.207

Recorded folding stability dG unfold for SAGEKIKEALKKAGVEKVEIVEIKRLKNGKVLIVIRLHPDMSEEQRRRLLKALADALREEFPDVKIVELSAG [r5_101_TrROS_Hall] , please?
4.79

Recorded folding stability dG unfold for SAGGMKTYTVTVEREVPDPSSDKWVYSTETLTIPYNVDPKTGTTPEEVAEELKAALPPDVLRVEFTDESAGG [r13_335_JUSTAS] , please?
-0.166

Recorded folding stability dG unfold for SAKNIAIKVSIWPFDPEDGEPQTFEITYPFPDPEDAIDEIEEFLPPGYRVKIEVFDPDGKPLKEIEIRISAG [r14_234_TrROS] , please?
1.93

Recorded folding stability dG unfold for SAGGEEEAVEKPFYQLPEKKPLKTVPMSREEALALARENPDLGILYAEEDGKLWKVDAETGTIEPLGSAGGS [r16_214_JUSTAS] , please?
1.23

Recorded folding stability dG unfold for SAGGSAGGSAGGKTYKITVSSGDTYLTISIELPDGLVLTYKITPNSIEVEIKPLKDFNESAGGSAGGSAGGS [r10_1169_TrMRF] , please?
3.42
